Test: self-splicing fitness, log relative to wild type (ln ratio); higher = more splicing; Tetrahymena group I intron in knt gene, E. coli kanamycin selection, DiMSum; sequences stand for … in CUCUCU…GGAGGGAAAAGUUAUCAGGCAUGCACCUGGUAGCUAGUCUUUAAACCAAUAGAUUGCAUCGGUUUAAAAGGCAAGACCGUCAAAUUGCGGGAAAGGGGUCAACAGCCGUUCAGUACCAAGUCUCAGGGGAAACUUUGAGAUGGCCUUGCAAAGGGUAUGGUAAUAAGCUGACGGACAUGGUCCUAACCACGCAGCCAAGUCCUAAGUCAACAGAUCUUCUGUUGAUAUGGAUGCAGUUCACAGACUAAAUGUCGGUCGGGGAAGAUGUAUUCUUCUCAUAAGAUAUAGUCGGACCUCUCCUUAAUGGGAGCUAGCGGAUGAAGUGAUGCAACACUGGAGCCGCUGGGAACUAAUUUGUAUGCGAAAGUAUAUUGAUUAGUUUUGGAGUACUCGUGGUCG;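 further: selection with 25 µg/mL kanamycin versus none on LB agar overnight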
Details: 30 °C
# thresholds on self-splicing fitness (ln) define classes: lo (below -3), mid (-3 to below -2), hi (-2 or more)

{"biosequence": "UGCGAGCAAUAUUACGGACC", "assigned.label": "mid"}
{"biosequence": "AGGUAGCAAUAUUACGGUGG", "assigned.label": "lo"}
{"biosequence": "AGGGAGCAAUAUUACGAGCA", "assigned.label": "lo"}
{"biosequence": "GACGAGCAAUAUUACGUAAA", "assigned.label": "mid"}
{"biosequence": "GUCAAGCAAUAUUACGGGAU", "assigned.label": "lo"}
{"biosequence": "GCGCAGCAAUAUUACGGCGC", "assigned.label": "mid"}
{"biosequence": "GUUUAGCAAUAUUACGCGAU", "assigned.label": "lo"}
{"biosequence": "GUACAGCAAUAUUACGCUGC", "assigned.label": "lo"}
{"biosequence": "AGUAAGCAAUAUUACGUCUC", "assigned.label": "lo"}
{"biosequence": "CAUGAGCAAUAUUACGCGGU", "assigned.label": "lo"}
{"biosequence": "GUUCAGCAAUAUUACGUUCU", "assigned.label": "hi"}
{"biosequence": "GCCGAGCAAUAUUACGACCA", "assigned.label": "mid"}
{"biosequence": "GGAAAGCAAUAUUACGUUAU", "assigned.label": "mid"}
{"biosequence": "AACAAGCAAUAUUACGGUCU", "assigned.label": "hi"}
{"biosequence": "UUAAAGCAAUAUUACGUGGA", "assigned.label": "mid"}
{"biosequence": "CGUUAGCAAUAUUACGAGAG", "assigned.label": "mid"}
{"biosequence": "ACACAGCAAUAUUACGGUUG", "assigned.label": "hi"}
{"biosequence": "UCCAAGCAAUAUUACGGAUU", "assigned.label": "lo"}
{"biosequence": "AGUUAGCAAUAUUACGUGGA", "assigned.label": "hi"}
{"biosequence": "UUCUAGCAAUAUUACGGGCU", "assigned.label": "lo"}
{"biosequence": "AUUCAGCAAUAUUACGCAUG", "assigned.label": "hi"}
{"biosequence": "CCUAAGCAAUAUUACGCAUC", "assigned.label": "mid"}
{"biosequence": "GCCAAGCAAUAUUACGUUCA", "assigned.label": "mid"}
{"biosequence": "CCAUAGCAAUAUUACGGUUA", "assigned.label": "lo"}
{"biosequence": "GGACAGCAAUAUUACGGAGC", "assigned.label": "hi"}
{"biosequence": "AAAGAGCAAUAUUACGUCGU", "assigned.label": "lo"}
{"biosequence": "UCGUAGCAAUAUUACGGAUC", "assigned.label": "lo"}
{"biosequence": "GUCAAGCAAUAUUACGAUUC", "assigned.label": "hi"}

---

Assay: self-splicing fitness, log relative to wild type (ln ratio); higher = more splicing; Tetrahymena group I intron in knt gene, E. coli kanamycin selection, DiMSum; sequences stand for … in CUCUCU…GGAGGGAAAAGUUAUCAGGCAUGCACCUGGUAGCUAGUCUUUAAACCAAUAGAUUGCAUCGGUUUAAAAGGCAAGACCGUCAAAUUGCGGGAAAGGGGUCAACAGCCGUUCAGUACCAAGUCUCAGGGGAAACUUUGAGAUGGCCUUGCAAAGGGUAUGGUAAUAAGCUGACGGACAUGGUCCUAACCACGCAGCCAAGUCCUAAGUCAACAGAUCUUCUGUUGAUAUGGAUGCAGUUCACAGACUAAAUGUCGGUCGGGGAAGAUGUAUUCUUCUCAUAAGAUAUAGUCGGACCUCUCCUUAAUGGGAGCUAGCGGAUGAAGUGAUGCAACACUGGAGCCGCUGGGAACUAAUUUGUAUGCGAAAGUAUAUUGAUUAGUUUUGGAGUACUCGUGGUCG
Conditions: 30 °C
Range-based classes on measured self-splicing fitness (ln): low group (below -3), middle group (-3 to below -0.6), high group (-0.6 or more)

{"biosequence": "GGUUAGCAAUAUUACGGCGA", "assigned.label": "high group"}
{"biosequence": "GAAAAGCAAUAUUACGUUUU", "assigned.label": "low group"}
{"biosequence": "UUCUAGCAAUAUUACGGUAA", "assigned.label": "middle group"}
{"biosequence": "ACGUAGCAAUAUUACGAUCU", "assigned.label": "high group"}
{"biosequence": "ACACAGCAAUAUUACGCGUC", "assigned.label": "low group"}
{"biosequence": "GAAGAGCAAUAUUACGACUA", "assigned.label": "middle group"}
{"biosequence": "AAUGAGCAAUAUUACGGCUG", "assigned.label": "middle group"}
{"biosequence": "GUGGAGCAAUAUUACGAGCU", "assigned.label": "low group"}
{"biosequence": "GCUGAGCAAUAUUACGACUC", "assigned.label": "high group"}
{"biosequence": "CUGAAGCAAUAUUACGCGGC", "assigned.label": "high group"}
{"biosequence": "GUAGAGCAAUAUUACGUAGG", "assigned.label": "low group"}
{"biosequence": "GACGAGCAAUAUUACGUUCC", "assigned.label": "low group"}
{"biosequence": "ACAAAGCAAUAUUACGACGU", "assigned.label": "high group"}

---

Test: self-splicing fitness, log relative to wild type (ln ratio); higher = more splicing; Tetrahymena group I intron in knt gene, E. coli kanamycin selection, DiMSum; sequences stand for … in CUCUCU…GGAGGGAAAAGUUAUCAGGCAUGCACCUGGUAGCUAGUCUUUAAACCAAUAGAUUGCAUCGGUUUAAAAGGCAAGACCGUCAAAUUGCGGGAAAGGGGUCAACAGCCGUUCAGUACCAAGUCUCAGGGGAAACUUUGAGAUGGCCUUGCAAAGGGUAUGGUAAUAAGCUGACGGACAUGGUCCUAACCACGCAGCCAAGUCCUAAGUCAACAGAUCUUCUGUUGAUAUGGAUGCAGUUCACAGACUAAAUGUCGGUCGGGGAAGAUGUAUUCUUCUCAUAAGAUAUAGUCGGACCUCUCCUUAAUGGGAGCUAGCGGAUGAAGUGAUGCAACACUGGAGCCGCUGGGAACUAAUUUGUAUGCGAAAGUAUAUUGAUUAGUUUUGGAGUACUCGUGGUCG
Details: 30 °C
# if value of self-splicing fitness (ln) reaches -1, tag 1.0; if it stays below, tag 0.0

{"biosequence": "GGAUAGCAAUAUUACGAAAU", "assigned.label": 0.0}
{"biosequence": "CCAAAGCAAUAUUACGGCAG", "assigned.label": 1.0}
{"biosequence": "UCGUAGCAAUAUUACGUUAA", "assigned.label": 0.0}
{"biosequence": "GACCAGCAAUAUUACGCACG", "assigned.label": 1.0}
{"biosequence": "ACUCAGCAAUAUUACGAUUA", "assigned.label": 1.0}
{"biosequence": "UUUUAGCAAUAUUACGUAGG", "assigned.label": 0.0}
{"biosequence": "UUGAAGCAAUAUUACGUGCG", "assigned.label": 1.0}
{"biosequence": "UUUUAGCAAUAUUACGGACA", "assigned.label": 0.0}
{"biosequence": "GGGUAGCAAUAUUACGCUAC", "assigned.label": 0.0}
{"biosequence": "GCUGAGCAAUAUUACGGCGU", "assigned.label": 1.0}
{"biosequence": "CUUGAGCAAUAUUACGACCA", "assigned.label": 0.0}
{"biosequence": "AGUGAGCAAUAUUACGUCGC", "assigned.label": 0.0}
{"biosequence": "GUAGAGCAAUAUUACGGGAU", "assigned.label": 0.0}
{"biosequence": "GGUGAGCAAUAUUACGUAUG", "assigned.label": 0.0}
{"biosequence": "AAGAAGCAAUAUUACGCAAG", "assigned.label": 0.0}

---

Collected self-splicing fitness (ln) values appear next to each entry.
Assay: self-splicing fitness, log relative to wild type (ln ratio); higher = more splicing; Tetrahymena group I intron in knt gene, E. coli kanamycin selection, DiMSum; sequences stand for … in CUCUCU…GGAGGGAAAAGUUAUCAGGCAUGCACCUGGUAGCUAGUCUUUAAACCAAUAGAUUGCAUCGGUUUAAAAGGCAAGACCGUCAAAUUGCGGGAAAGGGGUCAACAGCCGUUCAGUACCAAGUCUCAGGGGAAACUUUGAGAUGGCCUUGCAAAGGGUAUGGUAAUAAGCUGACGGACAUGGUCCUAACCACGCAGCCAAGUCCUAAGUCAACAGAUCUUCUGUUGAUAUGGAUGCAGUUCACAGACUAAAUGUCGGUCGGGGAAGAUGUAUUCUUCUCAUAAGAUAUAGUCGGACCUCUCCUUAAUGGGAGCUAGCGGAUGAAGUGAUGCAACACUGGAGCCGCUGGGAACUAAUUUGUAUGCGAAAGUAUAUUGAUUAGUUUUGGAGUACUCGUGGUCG
Conditions: 37 °C

{"biosequence": "UCAGAGCAAUAUUACGUAGA", "self-splicing fitness (ln)": 0.113}
{"biosequence": "AAAGAGCAAUAUUACGACUC", "self-splicing fitness (ln)": -0.537}
{"biosequence": "ACUCAGCAAUAUUACGAGUU", "self-splicing fitness (ln)": -2.36}
{"biosequence": "UCUAAGCAAUAUUACGUUUA", "self-splicing fitness (ln)": -1.69}
{"biosequence": "CUAUAGCAAUAUUACGCAAU", "self-splicing fitness (ln)": -1.58}
{"biosequence": "CUGCAGCAAUAUUACGCAUA", "self-splicing fitness (ln)": -2.73}
{"biosequence": "ACAAAGCAAUAUUACGUAUG", "self-splicing fitness (ln)": -2.13}
{"biosequence": "CCACAGCAAUAUUACGCUUA", "self-splicing fitness (ln)": -2.98}
{"biosequence": "UUUAAGCAAUAUUACGGAGA", "self-splicing fitness (ln)": -0.727}
{"biosequence": "AUGCAGCAAUAUUACGCAAA", "self-splicing fitness (ln)": -0.0469}
{"biosequence": "GCGCAGCAAUAUUACGGAGC", "self-splicing fitness (ln)": -2.38}
{"biosequence": "CUAAAGCAAUAUUACGGGAG", "self-splicing fitness (ln)": 0.188}
{"biosequence": "GGAUAGCAAUAUUACGCUCG", "self-splicing fitness (ln)": -0.208}
{"biosequence": "AGUUAGCAAUAUUACGCGGA", "self-splicing fitness (ln)": -0.581}
{"biosequence": "GUCGAGCAAUAUUACGGCGU", "self-splicing fitness (ln)": -0.689}
{"biosequence": "UAGAAGCAAUAUUACGGCAU", "self-splicing fitness (ln)": -0.323}
{"biosequence": "AGGAAGCAAUAUUACGGUAU", "self-splicing fitness (ln)": -0.707}
{"biosequence": "AGCGAGCAAUAUUACGCAUC", "self-splicing fitness (ln)": -2.33}
{"biosequence": "AAAUAGCAAUAUUACGGGCA", "self-splicing fitness (ln)": -0.312}
{"biosequence": "CUCAAGCAAUAUUACGUGCA", "self-splicing fitness (ln)": -1.85}
{"biosequence": "ACAUAGCAAUAUUACGUAGG", "self-splicing fitness (ln)": -1.84}
{"biosequence": "ACGCAGCAAUAUUACGCGGA", "self-splicing fitness (ln)": -1.87}
{"biosequence": "CAAUAGCAAUAUUACGGCAC", "self-splicing fitness (ln)": -3.06}
{"biosequence": "UCAAAGCAAUAUUACGGUCA", "self-splicing fitness (ln)": -0.6}
{"biosequence": "UUCCAGCAAUAUUACGCCGU", "self-splicing fitness (ln)": -1.43}
{"biosequence": "UGAGAGCAAUAUUACGCUCA", "self-splicing fitness (ln)": -1.22}
{"biosequence": "UAUGAGCAAUAUUACGCUAC", "self-splicing fitness (ln)": -2.25}
{"biosequence": "GGUUAGCAAUAUUACGCUGG", "self-splicing fitness (ln)": -1.59}
{"biosequence": "GCACAGCAAUAUUACGAGGU", "self-splicing fitness (ln)": 0.0148}
{"biosequence": "UACCAGCAAUAUUACGAAGC", "self-splicing fitness (ln)": -2.17}
{"biosequence": "GCCCAGCAAUAUUACGAUCC", "self-splicing fitness (ln)": -0.336}
{"biosequence": "CACCAGCAAUAUUACGGUGG", "self-splicing fitness (ln)": -1.59}
{"biosequence": "GGCAAGCAAUAUUACGUCCC", "self-splicing fitness (ln)": -0.249}
{"biosequence": "UGCAAGCAAUAUUACGGGAA", "self-splicing fitness (ln)": -1.33}
